Below: a set of entries, each annotated with reported MIC.
# Test system: Staphylococcus aureus
# PROCEDURE_DETAILS: Antimicrobial activity against methicillin-resistant Staphylococcus aureus A1 after 24 hrs
# Type: functional

CHEMICAL_STRING	MIC
CC(C)NC(=S)N/N=C/C=C/c1ccc([N+](=O)[O-])o1	> 256 µg/mL
CNC(=S)N/N=C/C=C/c1ccc([N+](=O)[O-])o1	64 µg/mL
CC(C)NC(=S)N/N=C/c1ccc([N+](=O)[O-])o1	> 256 µg/mL

Give reported MIC value for CC(C)(C)NC(=S)N/N=C/C=C/c1ccc([N+](=O)[O-])o1
> 256 µg/mL

Give reported MIC value for CCNC(=S)N/N=C/c1ccc([N+](=O)[O-])o1
64 µg/mL

Give reported MIC value for CC(C)NC(=S)N/N=C/C=C/c1ccco1
> 256 µg/mL

Give reported MIC value for CCNC(=S)N/N=C/C=C/c1ccc([N+](=O)[O-])o1
2 µg/mL

----------
# Tested on: Staphylococcus aureus
# PROCEDURE_DETAILS: Antimicrobial activity against Staphylococcus aureus ATCC 6538 after 24 hrs
# Type: functional
# MEASUREMENT_CONDITIONS: ATCC 6538, 24 h
MEASURED_PARAMETER: MIC (µg/mL)
Respond numerically; units are µg/mL and should not be typed.

The cases that follow already have their MIC on record.
CHEMICAL_STRING	MEASURED_PARAMETER	REPORTED_MEASUREMENT
CCNC(=S)N/N=C/C=C/c1ccc([N+](=O)[O-])o1	MIC	4
CC(C)NC(=S)N/N=C/c1ccc([N+](=O)[O-])o1	MIC	64
CNC(=S)N/N=C/c1ccc([N+](=O)[O-])o1	MIC	64
CNC(=S)N/N=C/C=C/c1ccc([N+](=O)[O-])o1	MIC	32
CC(C)(C)NC(=S)N/N=C/c1ccc([N+](=O)[O-])o1	MIC	64

Give reported MIC value for CCNC(=S)N/N=C/c1ccc([N+](=O)[O-])o1
32

Give reported MIC value for CN[C@H](CC(C)C)C(=O)N[C@H]1C(=O)N[C@@H](CC(N)=O)C(=O)N[C@H]2C(=O)N[C@H]3C(=O)N[C@H](C(=O)N[C@H](C(=O)O)c4cc(O)cc(O)c4-c4cc3ccc4O)[C@H](O)c3ccc(c(Cl)c3)Oc3cc2cc(c3O[C@@H]2O[C@H](CO)[C@@H](O)[C@H](O)[C@H]2O[C@H]2C[C@](C)(N)[C@H](O)[C@H](C)O2)Oc2ccc(cc2Cl)[C@H]1O
1.5

----------
Below: a set of entries, each annotated with reported MIC.
# System: Cutibacterium acnes
# PROCEDURE_DETAILS: Antimicrobial activity against Propionibacterium acnes C3 after 48 hrs
# Assay type: functional
Respond numerically; units are µg/mL and should not be typed.

The cases that follow already have their MIC on record.
CHEMICAL_STRING	ASSAY_TARGET	MIC, µg/mL
CC(C)NC(=S)N/N=C/C=C/c1ccco1	Cutibacterium acnes	1
CC(C)(C)NC(=S)N/N=C/C=C/c1ccco1	Cutibacterium acnes	4
CNC(=S)N/N=C/c1ccc([N+](=O)[O-])o1	Cutibacterium acnes	16
CC(C)NC(=S)N/N=C/C=C/c1ccc([N+](=O)[O-])o1	Cutibacterium acnes	32
CCNC(=S)N/N=C/C=C/c1ccc([N+](=O)[O-])o1	Cutibacterium acnes	2

Give reported MIC value for CC(C)(C)NC(=S)N/N=C/C=C/c1ccc([N+](=O)[O-])o1
8

Give reported MIC value for CCNC(=S)N/N=C/c1ccc([N+](=O)[O-])o1
2

Give reported MIC value for CCNC(=S)N/N=C/C=C/c1ccco1
32

Give reported MIC value for CC(C)(C)NC(=S)N/N=C/c1ccc([N+](=O)[O-])o1
16

Give reported MIC value for CNC(=S)N/N=C/C=C/c1ccc([N+](=O)[O-])o1
1

Give reported MIC value for CC(C)NC(=S)N/N=C/c1ccc([N+](=O)[O-])o1
32

Give reported MIC value for CNC(=S)N/N=C/C=C/c1ccco1
16
